system: NCI-H23 lung; assay: NCI tumour cell line growth inhibition, 48 h
readout.type: TGI

See these solved cases before continuing.
O=C1CC(c2ccccc2)NCCCCN2CC(CN1)C(C(O)c1ccccc1)C2=O (centres undefined); > 100 µM
CCCCCCCC(=O)SCC/C=C/[C@@H]1CC(=O)NCc2cccc(n2)C2=N[C@@](C)(CS2)C(=O)N[C@@H](C(C)C)C(=O)O1; > 33.3 µM
CCCCC1CCCCCCc2[nH]c(/C=C3\N=C(c4ccc[nH]4)C=C3OC)cc21 (centres undefined); 1.28 µM

Now take the following molecule into account.
Please supply the value of reported TGI for the item Cn1cc(S(=O)(=O)NC(=O)Nc2ccc(Cl)cc2)c(=O)c2ccc(Cl)cc21
> 100 µM

====

system: SNB-19 CNS; test: NCI tumour cell line growth inhibition, 48 h
readout.type: TGI

See these solved cases before continuing.
CN(C(=N)c1ccccc1)c1ccccc1; > 100 µM
O=C(CC(O)c1cccnc1)CC(O)c1cccnc1 (configuration not stated); 55.4 µM
Nc1cc(N2CCOCC2)nc(=O)n1-c1ccccc1; > 100 µM
CC(C)(c1ccccc1)c1ccc(Oc2ccc3c(c2)-c2nc-3nc3[nH]c(nc4nc(nc5[nH]c(n2)c2ccc(Oc6ccc(C(C)(C)c7ccccc7)cc6)cc52)-c2cc(Oc5ccc(C(C)(C)c6ccccc6)cc5)ccc2-4)c2ccc(Oc4ccc(C(C)(C)c5ccccc5)cc4)cc32)cc1; > 100 µM
CCOc1cc(/C=N\O)cc(/C=N/O)c1O; > 100 µM
CC(C)(C)n1nc(C2CC2)cc1NC(=O)Nc1ccc(Cl)cc1; > 100 µM
CCCCCCCCCCCCCCCCSS(C)(=O)=O; > 100 µM
O=C(O)\C=C/C=C/C=C/C=C/C(=O)O; > 100 µM
Nc1nc(Cl)cc(NCC2(CO)CC(CCCc3ccccc3)C2)n1 (configuration not stated); > 100 µM
COC1CC(=O)C2C(=O)N(c3ccccc3)C(=O)C23C(C(=O)c2ccccc2)=C(C)NC13O (configuration not stated); 51.1 µM

Now take the following molecule into account.
Write down measured TGI (SNB-19 CNS) for this molecule. Nc1nc2ccccc2c2[nH]c3ccccc3c12
3.71 µM

====

Listed here are compounds together with their documented TGI.
tested on: MDA-MB-231 breast; assay: NCI tumour cell line growth inhibition, 48 h
Report as a plain number; the unit µM is understood.

CN(C)c1ccc(/C=N/NC(=O)CSc2nc3sc4c(c3c(=O)n2-c2ccccc2)CCCCC4)cc1; 18

Now take the following compound into account.
Please supply the value of reported TGI for the item Cc1c2ccccc2c(CSC(=N)N)c2ccccc12
1.03

====

test system: SK-MEL-28 melanoma; assay: NCI tumour cell line growth inhibition, 48 h; in the data active means GI50 below about 0.43 µM; inactive means the rest
Could you please pick one outcome from this set? active, inactive

Examples from the recorded data:
CN(C)c1ccc(/C=N/NC(=O)CSc2nc3sc4c(c3c(=O)n2-c2ccccc2)CCCCC4)cc1; inactive
CCCCCCCC(=O)SCC/C=C/[C@@H]1CC(=O)NCc2cccc(n2)C2=N[C@@](C)(CS2)C(=O)N[C@@H](C(C)C)C(=O)O1; active
Cc1ccc(C(=O)Nc2ccc(CN3CCN(C)CC3)c(C(F)(F)F)c2)cc1C#Cc1cnc(N)c2ccc(C#N)cc12; active
C[C@]12CC/C(=N\O)C[C@@H]1CC[C@@H]1[C@@H]2CC[C@]2(C)/C(=N/O)CC[C@@H]12; inactive

Now let's try a different one.
Each compound tested received a call. Report the one for COc1ccc(-c2cnc(SCC(=O)c3c(C)n(C)n(-c4ccccc4)c3=O)n2-c2ccc(OC)cc2)cc1 .
inactive
